target.under.test: T1, hPD-1-his (human, UniProt Q15116 25-167)
T1 construct: domain: IgV domain; monomer in solution; biotin-labelled where captured by streptavidin; also called biotin-hPD-1-his
assay.name: ELISA, PD-1-his on streptavidin
Below, each of the binders is paired with its reported OD at 10 nM value.
Report the value in OD with no unit label.

binder | OD at 10 nM, OD
38B2 (antibody, V domains shown, 24H9 derivative, IgG; also called 780_54; hPD1 Ab (38B2)) VH: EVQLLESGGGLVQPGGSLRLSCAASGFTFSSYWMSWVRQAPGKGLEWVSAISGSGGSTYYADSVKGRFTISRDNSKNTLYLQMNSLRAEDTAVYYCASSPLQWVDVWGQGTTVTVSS VL: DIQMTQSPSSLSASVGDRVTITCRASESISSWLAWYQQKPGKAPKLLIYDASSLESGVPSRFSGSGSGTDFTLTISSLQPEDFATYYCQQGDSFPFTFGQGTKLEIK | 1.04
32D2 (antibody, V domains shown) VH: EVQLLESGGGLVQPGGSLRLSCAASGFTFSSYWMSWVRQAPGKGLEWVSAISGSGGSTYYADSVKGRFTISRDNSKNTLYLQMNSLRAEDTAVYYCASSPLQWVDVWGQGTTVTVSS VL: DIQMTQSPSSLSASVGDRVTITCRASQGISRWLAWYQQKPGKAPKLLIYEASTLQSGVPSRFSGSGSGTDFTLTISSLQPEDFATYYCQQAYSFPFTFGQGTKVDIK | 0.932

Now take the following binder into account.
Lookup: Need OD at 10 nM of 38C11 (antibody, V domains shown) VH: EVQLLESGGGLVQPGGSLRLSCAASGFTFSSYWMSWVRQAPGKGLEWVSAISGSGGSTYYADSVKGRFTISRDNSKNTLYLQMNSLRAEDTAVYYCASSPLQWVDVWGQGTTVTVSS VL: DIQMTQSPSSLSASVGDRVTITCRASQSISRWLAWYQQKPGKAPKLLISDASTVQSGVPSRFSGSGSGTDFTLTISSLQPEDFATYYCQQANSFPFTFGPGTKVDIK , thanks.
Found: 1.05
